- Tested on: SF-539 CNS
- assay_explanation: NCI tumour cell line growth inhibition, 48 h; in the data active means GI50 below about 0.43 µM; inactive means the rest
Outcomes you can answer with include only these: active, inactive

1) COc1ccc(C(=O)c2no[n+]([O-])c2C(=O)c2ccc(OC)cc2)cc1 ... inactive
2) CCn1cnc(C[C@H](NC(=O)[C@@H](NC(=O)Nc2cc(C(F)(F)F)cc(C(F)(F)F)c2)C(C)(C)C)C(=O)OC)c1 ... inactive
3) COc1cc2c(cc1OCCCN1CCN(CCCOc3cc4c(cc3OC)C(=O)N3C[C@H](F)C[C@H]3C=N4)CC1)N=C[C@@H]1C[C@@H](F)CN1C2=O ... active
4) CCOC(=O)CCC(NC(=O)c1ccc(Oc2nc3cc(N)cc(N)c3nc2-c2ccccc2)cc1)C(=O)OCC (centres undefined) ... inactive
5) Cc1cc(N)c2cc(NC(=O)/C=C\c3ccccc3Cl)ccc2n1 ... inactive

For Nc1ccccc1SC(CC(=O)c1ccccc1)c1c(Cl)cccc1Cl (centres undefined) , which call appears in the assay record?
inactive
